Biological target: T1, recombinant histidine-tagged cynomolgus monkey E-selectin (Sino Biologicals; 190169-C08H) (cynomolgus monkey, UniProt A0A2K5U7H9 22-554)
T1 construct: also called recombinant cynomolgus monkey E-selectin
T1 sequence: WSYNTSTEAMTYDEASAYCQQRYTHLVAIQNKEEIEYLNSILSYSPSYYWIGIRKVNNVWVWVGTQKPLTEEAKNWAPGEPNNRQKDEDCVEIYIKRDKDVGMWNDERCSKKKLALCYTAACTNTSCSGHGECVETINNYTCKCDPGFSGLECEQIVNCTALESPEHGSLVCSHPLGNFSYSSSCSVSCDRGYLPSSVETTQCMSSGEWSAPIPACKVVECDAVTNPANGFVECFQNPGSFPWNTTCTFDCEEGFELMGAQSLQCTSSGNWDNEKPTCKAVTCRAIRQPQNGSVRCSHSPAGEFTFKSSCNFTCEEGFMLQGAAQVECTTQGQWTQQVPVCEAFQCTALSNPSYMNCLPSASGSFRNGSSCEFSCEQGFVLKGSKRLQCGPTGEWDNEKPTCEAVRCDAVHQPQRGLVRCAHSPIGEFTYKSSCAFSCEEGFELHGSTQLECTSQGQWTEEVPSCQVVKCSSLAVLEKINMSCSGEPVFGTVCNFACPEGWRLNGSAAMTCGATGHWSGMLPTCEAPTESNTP
Experiment: competition ELISA, His-tagged E-selectin on Ni-NTA plate vs HRP-conjugated sialyl Lewis A
Measured pIC50 values are reported for all entries that follow.
Here pIC50 is given on a logarithmic scale as minus log10 of the concentration in mol/L.

Some binders with known pIC50 results, for comparison:
1. optimized anti-E-selectin antibody 1284 (antibody, human IgG1, kappa, V domains shown, effector-null human IgG1, kappa) VH: EVQLVESGGGLVQPGGSLRLSCAASGYAIRSAYMHWVRQAPGKGLEWVARIDPANGNTIYVESVEGRFTISADNAKNSAYLQMNSLRAEDTAVYYCAMDLYSTSEYWGQGTLVTVSS VL: DIQMTQSPSSLSASVGDRVTITCKTSQNIERYLNWYQQKPGKAPKLLIYAASSLQSGVPSRFSGSGSGTDFTLTISSLQPEDFATYFCLQDNAWPLTFGQGTKVEIKR: 8.47
2. anti-E-selectin antibody 0164 chimera (antibody, human IgG1, kappa, V domains shown, rat VH/VL on effector-null human IgG1 and human kappa) VH: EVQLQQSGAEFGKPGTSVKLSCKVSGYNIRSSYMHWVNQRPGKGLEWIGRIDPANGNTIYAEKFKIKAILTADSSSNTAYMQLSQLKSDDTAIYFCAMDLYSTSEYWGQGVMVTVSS VL: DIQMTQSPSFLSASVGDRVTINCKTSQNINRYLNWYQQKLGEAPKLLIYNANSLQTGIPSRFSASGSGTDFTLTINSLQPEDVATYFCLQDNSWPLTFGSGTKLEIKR: 8.48

Moving on to another binder below.
Query optimized anti-E-selectin antibody 1448 (antibody, human IgG1, kappa, V domains shown, effector-null human IgG1, kappa) VH: EVQLVESGGGLVQPGGSLRLSCAASGYAIRSAYMHWVRQAPGKGLEWVARIDPANGNTIYVDSVKERFTISADNAKNSAYLQMNSLRAEDTAVYYCAMDLYSTSEYWGQGTLVTVSS VL: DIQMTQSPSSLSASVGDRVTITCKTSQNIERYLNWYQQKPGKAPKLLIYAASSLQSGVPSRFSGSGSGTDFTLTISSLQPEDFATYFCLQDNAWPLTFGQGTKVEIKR yields pIC50 of 8.56
